Hey, just so you know, these numbers are from ChEMBL document CHEMBL1148889.

# Experimental System: Cannabinoid receptor (Homo sapiens) (UniProt P34972+P21554)
# Sequence (P21554 whole entry, looked up): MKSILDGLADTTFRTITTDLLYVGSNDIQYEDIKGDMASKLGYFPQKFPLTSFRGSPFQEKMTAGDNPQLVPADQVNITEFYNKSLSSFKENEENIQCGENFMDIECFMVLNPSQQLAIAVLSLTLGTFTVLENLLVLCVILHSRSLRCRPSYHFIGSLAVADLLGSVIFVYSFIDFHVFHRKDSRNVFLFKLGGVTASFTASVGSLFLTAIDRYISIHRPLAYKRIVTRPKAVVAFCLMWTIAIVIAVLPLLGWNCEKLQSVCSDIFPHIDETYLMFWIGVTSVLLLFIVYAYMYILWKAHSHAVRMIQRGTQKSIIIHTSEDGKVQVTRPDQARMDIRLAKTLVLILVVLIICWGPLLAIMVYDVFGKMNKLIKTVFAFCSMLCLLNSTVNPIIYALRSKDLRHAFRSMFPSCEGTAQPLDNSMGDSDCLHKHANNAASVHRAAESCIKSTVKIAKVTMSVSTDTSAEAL
# Sequence (P34972 whole entry, looked up): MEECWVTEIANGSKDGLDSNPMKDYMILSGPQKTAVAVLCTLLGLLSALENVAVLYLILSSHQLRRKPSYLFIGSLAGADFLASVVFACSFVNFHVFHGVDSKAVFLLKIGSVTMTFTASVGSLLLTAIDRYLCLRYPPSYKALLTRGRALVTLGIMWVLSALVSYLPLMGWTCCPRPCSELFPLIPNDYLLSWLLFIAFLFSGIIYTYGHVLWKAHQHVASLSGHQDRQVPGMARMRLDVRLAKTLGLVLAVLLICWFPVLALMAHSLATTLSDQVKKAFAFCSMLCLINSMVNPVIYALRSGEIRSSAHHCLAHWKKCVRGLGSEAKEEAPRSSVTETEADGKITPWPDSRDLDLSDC
# Assay Info: Selectivity for human CB2 receptor over human CB1 receptor
# Assay type: protein assay
Catalogue of Ratio Ki readings, one per entry.

| Query Smiles | Limit Qualifier | Ratio Ki |
| --- | --- | --- |
| CCCCCCC(C)(C)c1ccc(-c2cc(C)ccc2C)c(O)c1 | = | 0.7 |
| CCCCCCC(C)(C)c1ccc(-c2ccc(OC)c(OC)c2)c(O)c1 | = | 0.8 |
| CCCCCCC(C)(C)c1ccc(-c2cccc(N)c2)c(O)c1 | = | 0.3 |
| COC(=O)CCCCC(C)(C)c1ccc(-c2cc(C)cc(C)c2)c(O)c1 | = | 2 |
| CCCCCCC(C)(C)c1ccc(-c2c(C)cccc2C)c(O)c1 | = | 0.1 |
| CCCCCCC(C)(C)c1ccc(-c2cc(C)cc(C)c2)c(COC(=O)CN2CCOCC2)c1 | = | 500 |
| CNC(=O)CCC(C)(C)c1ccc(-c2cc(C)cc(C)c2)c(O)c1 | = | 6 |
| CCCCCCC(C)(C)c1ccc(-c2cc(C)cc(C)c2)c(CO)c1 | = | 0.8 |
| CCCCCCC(C)(C)c1ccc(-c2cc(C)cc(C)c2)c(OC)c1 | = | 9 |
| CCCCCCC(C)(C)c1ccc(-c2cccnc2)c(O)c1 | = | 1 |
| CCCCCCC(C)(C)c1ccc(-c2cc(C)cc(C)c2)c(CN)c1 | = | 4 |
| CCCCCCC(C)(C)c1ccc(-c2cc(C)cc(C)c2)cc1 | > | 10 |
| CNC(=O)CCCCC(C)(C)c1ccc(-c2cc(C)cc(C)c2)c(O)c1 | = | 2 |
| CCCCCCC(C)(C)c1ccc(-c2ccc(N)cc2)c(O)c1 | = | 0.3 |
| CCCCCCC(C)(C)c1ccc(-c2cc(C)cc(C)c2)c(C(N)=O)c1 | = | 1 |
| CCCCCCC1(c2ccc(-c3cc(C)cc(C)c3)c(O)c2)CCCCC1 | = | 1 |
| CCCCCCC1(c2ccc(-c3cc(C)cc(C)c3)c(O)c2)CC1 | = | 0.2 |
| CCCCCCC(C)(C)c1ccc(-c2cccc(C#N)c2)c(O)c1 | = | 0.6 |
| CCCCCCC(C)(C)c1ccc(-c2cccc(OC)c2OC)c(O)c1 | = | 4 |
| CCCCCCC(C)(C)c1ccc(-c2cc(C)cc(C)c2)c(O)c1 | = | 1 |
| COC(=O)C(C)(C)c1ccc(-c2cc(C)cc(C)c2)c(O)c1 | = | 10 |
| CCCCCCC(C)(C)c1ccc(-c2ccc(C)c(C)c2)c(O)c1 | = | 0.7 |
| Cc1cc(C)cc(-c2ccc(C(C)(C)CCCCCO)cc2O)c1 | = | 10 |
